System: U251 CNS
Test: NCI tumour cell line growth inhibition, 48 h
compounds and their reported TGI

compound | TGI
Cc1ccc(S(=O)(=O)NCC2CCCCC2=O)cc1 (stereo not drawn) | > 100 µM
C=C(C=O)[C@@H]1C2OC(=O)C(=C)[C@@H]2CC(O)[C@@]1(C)CC (stereo partly drawn) | 32.4 µM
COc1ccc(OC)c(NC(=O)C(=O)NNC(=O)c2sc(NNC(C)=O)nc2C)c1 | > 100 µM

---

Tested on: NCI-H522 lung
Test: NCI tumour cell line growth inhibition, 48 h

compound | assaySystem | relationOperator | TGI (µM)
S=C(NCc1ccccc1)c1nc[nH]c1C(=S)NCc1ccccc1 | NCI-H522 lung | = | 21.3
CCCCCCCCCCCCCCCCCCNc1ccn(C2OC(COP(=O)(O)OCC3OC(n4cc(C)c(=O)[nH]c4=O)CC3O)C(O)C2O)c(=O)n1 (stereo not drawn) | NCI-H522 lung | = | 30.3
CNC(=S)N(C)C(=S)Nn1c(=O)c(C)nn(C)c1=S | NCI-H522 lung | > | 100
O=C1c2ccccc2C(=O)C1(Cl)C1(S(=O)(=O)O)c2ccccc2-c2ccccc21 | NCI-H522 lung | > | 100
COc1ccc2nc3ccc(OC)cc3c(S(=O)CCCl)c2c1 (stereo not drawn) | NCI-H522 lung | = | 3.23
C[N+](C)([O-])CCC=C1c2ccccc2CCc2ccccc21 | NCI-H522 lung | = | 34.4
NC(CCCCP(=O)(O)O)C(=O)O (stereo not drawn) | NCI-H522 lung | > | 100
C[C@]12C=CC(=O)C=C1CC[C@H]1[C@@H]3C[C@@H](O)[C@](O)(C(=O)CO)[C@@]3(C)C[C@H](O)[C@@]12F | NCI-H522 lung | > | 100
NC(=NCCCOc1ccc(Cl)cc1)Nc1ccc(C(F)(F)F)cc1 | NCI-H522 lung | = | 4.41
C=C(C=O)[C@@H]1C2OC(=O)C(=C)[C@@H]2CC(O)[C@@]1(C)CC (stereo partly drawn) | NCI-H522 lung | = | 4.52
O=C(O/N=C1/CCCC/C1=C\c1ccccc1)c1ccccc1 | NCI-H522 lung | > | 100
O=C1CCCC/C(=C/c2ccccc2)N1 | NCI-H522 lung | > | 100
CC(SC(C)C(=O)N/N=C/c1cccc(Cl)c1)C(=O)N/N=C\c1cccc(Cl)c1 (stereo not drawn) | NCI-H522 lung | = | 11.6
CCOC(=O)C1(Cc2ccc3c(c2)CCC3)Cc2cc3c(cc2C1)CCC3 | NCI-H522 lung | = | 75.5
COC(=O)C(C(=O)C(=O)Nc1cccc(OC)c1)c1cnc2ccccc2n1 (stereo not drawn) | NCI-H522 lung | > | 100
COc1ccc(C2S/C(=C\c3ccccc3O)C(=O)N2NC(=O)Cc2ccccc2)cc1 (stereo not drawn) | NCI-H522 lung | > | 100
COc1ccc(N=C2SC(=N/N=c3\sc4ccccc4n3C)SC2=Nc2ccc(OC)cc2)cc1 | NCI-H522 lung | > | 100
CCCCc1c(OC)cc(O)c2c1C(=O)c1[nH]c(C(=O)O)c(O)c(=O)c1C2=O | NCI-H522 lung | = | 9.94

---

Reported TGI values are given for each entry in this list.
Tested on: U251 CNS
Assay: NCI tumour cell line growth inhibition, 48 h

compound | TGI
CNn1c(-c2ccccc2)n[nH]c1=O | > 100 µM
O=C(O)/C=N\Nc1nc2ccccc2[nH]1 | > 100 µM
Cc1nc2ccccc2c(=O)n1NC(=O)c1ccc(CS)cc1 | 23.3 µM
Cc1cc(=O)[nH]c(NN2C(Cl)C(=O)C2c2cccc(O)c2)n1 (configuration not stated) | > 100 µM
CC(C)c1ccc(Nc2ccc3c(OCCCN4CCN(C)CC4)cccc3n2)cc1 | 10.3 µM
COc1ccc2c(c1)CCC1C2CC[C@@]2(C)C1CC1=CC(COC(C)=O)C3C(=O)c4ccccc4C(=O)C3C12 (some centres not stated) | > 100 µM
CNC(=S)NC1CCCCC1NC(=S)NC (configuration not stated) | > 100 µM
COc1cc(C(=O)c2cc(C)c3[nH]c4ccc(Cl)cc4c3c2C)cc(OC)c1OC | 15 µM
C[C@]12CC[C@H](O)CC1=CC[C@@H]1[C@@H]2CC[C@]2(C)C(=O)[C@@H](N3CCOCC3)C[C@@H]12 | > 100 µM
O=C1OC(c2ccccc2)=N/C1=C/C=C/c1ccco1 | > 100 µM
CCN(CC)CCOc1ccc(/C=C(\C#N)c2ccc(OCCN(CC)CC)cc2)cc1 | 35.8 µM
O=C(c1ccc(O)cc1)C1c2c3c(cc(O)c2C(c2ccc(O)cc2)C1c1cc(O)cc(O)c1)OC(c1ccc(O)cc1)C3c1cc2c(cc1O)OC(c1ccc(O)cc1)C2c1cc(O)cc(O)c1 (configuration not stated) | > 12.5 µM
COc1nc(C(=O)NNC(=O)c2nc(OC)c3ccccc3c2-c2ccccc2)c(-c2ccccc2)c2ccccc12 | > 100 µM
O=c1c2ccccc2[se]n1-c1cccnc1 | 76 µM
CC(=O)O.CC(=O)O.CC(=O)O.CC(=O)O.CC(=O)O.CC(=O)O.O.[Ti].[Ti] | > 100 µM
COc1ccc(C(C)NNC(=O)c2ccncc2)c(OC)c1 (configuration not stated) | > 100 µM
Clc1ccc2c(NCCCNc3nccc(Nc4ccc(Br)cc4)n3)ccnc2c1 | 2.94 µM
COc1ccc(N(C)c2ncnc3occ(C)c23)cc1 | 11.9 µM
C=CC(Br)(CBr)CCC(Cl)C(C)C (configuration not stated) | 3.02 µM
O=C(/C=C/c1ccc(O)cc1)OC[C@@H](O)COC1OC(CO)C(O)C(O)C1O (some centres not stated) | > 100 µM
O=C(OC(=O)n1ccc2ccccc21)n1ccc2ccccc21 | > 100 µM
CCCCN(CCCC)CC(C(=O)Nc1ccc([N+](=O)[O-])cc1[N+](=O)[O-])/C(C)=N\NC(=S)NN (configuration not stated) | > 100 µM
CC(=O)OC1Oc2ccccc2-c2oc(=O)c(-c3cc(=O)oc4cc(O)ccc34)cc21 (configuration not stated) | 65.3 µM
NC(N)=NCCN=C(N)N | > 100 µM
CC1=Nc2ccccc2C1C(Cc1ccccc1N)c1c(C)[nH]c2ccccc12 (configuration not stated) | 32.4 µM
O=S(=O)(c1ccccc1)n1c2cc3cccnc3nc2c2cccnc21 | > 100 µM
Cc1ccc(S(=O)(=O)N/N=C/C(=C/c2ccc(Cl)cc2)CC(/C=N/NS(=O)(=O)c2ccc(C)cc2)=C\c2ccc(Cl)cc2)cc1 | 17.2 µM
NC(Cc1cccc([N+](=O)[O-])c1)C(=O)O (configuration not stated) | > 100 µM
CCN(CC)c1c(N(CC)CC)c(=O)c1=O | 55.6 µM
COCCOCc1nc(C#N)c(N)o1 | > 100 µM
CCOC(=O)C1(Cc2ccc3c(c2)CCC3)Cc2cc3c(cc2C1)CCC3 | > 100 µM
C=C(CCCCC)CN1CCCC1[C@@](C)(O)CC(=O)OCC (some centres not stated) | > 100 µM
COc1cc(Nc2cnc3cc(F)c(F)cc3n2)cc(OC)c1OC | > 100 µM
O=C1NC(=Nc2ccccc2)S/C1=C\c1ccc2ncccc2c1 | > 25 µM
COC(=O)C1=C(C)N(NC(=O)c2ccccc2)C(C)(O)C12CCOC2=O (configuration not stated) | > 100 µM
Cc1ccc(Cl)cc1Nc1nc(C(F)(F)F)ccc1C(=O)N1CCN(c2ccc(F)cc2)CC1 | 25.5 µM
CC(C)(C)OC(=O)NCC(=O)OCc1ccccc1 | > 100 µM
CCCCCCCCCC/C=C/CC(=O)SCCNC(=O)CCNC(=O)[C@@H](O)C(C)(C)COP(=O)(O)OP(=O)(O)OCC1OC(n2cnc3c(N)ncnc32)C(O)C1OP(=O)(O)O (some centres not stated) | > 10 µM
CCOP(=O)(Cc1ccc(CP(=O)(OCC)OCC)n1C)OCC | > 100 µM
C=C(C=O)C1CCC2(C(=O)O)CCC3(C)C(CCC4C5(C)CCC(O)C(C)(C)C5CCC43C)C12 (configuration not stated) | 3.74 µM
C[As](C)SC1OC(CO)C(O)C1O (configuration not stated) | 3.2 µM
O=S(O)CCCCSSCC(O)C(O)CSSCCCCS(=O)O (configuration not stated) | > 100 µM

---

Below, each entry is listed with its recorded TGI.
Tested on: MOLT-4 leukemia
Experiment: NCI tumour cell line growth inhibition, 48 h

compound | TGI
CC(C)(C)C(=O)OCC1CCC[N+]2(C)CCCCC12 (stereo not drawn) | > 100 µM
O=C1OC(c2ccccc2)=N/C1=C/C=C/c1ccco1 | > 100 µM
CC1(CCCO)CCCCCC(C)(CCCO)C1=O (stereo not drawn) | > 100 µM
CC(C)c1ccc(Nc2ccc3c(OCCCN4CCN(C)CC4)cccc3n2)cc1 | 8.2 µM
CC(C)(C)OC(=O)NCC(=O)OCc1ccccc1 | > 100 µM
O=C(Nc1ccc(OS(=O)(=O)c2ccccc2)cc1)C12CC3CC(CC(C3)C1)C2 | > 100 µM
C=CC(Br)(CBr)CCC(Cl)C(C)C (stereo not drawn) | 4.31 µM
COc1ccc(NC(=O)CCc2cc(-c3ccc(O)c(OC)c3)nc(NC#N)n2)cc1 | > 100 µM
